Field: percent of total mass as 2:2 complex (not self-associated). Provide a value for each of the proteins that follow.
# assayed_system: the molecule itself
# assay_text: SEC-MALS; co-purified complexes at >1 mg/ml on Superdex 200 Increase 10/300 GL in 20 mM Tris pH 8.0, 150 mM KCl, 2 mM DTT; in Fig. 1 core at 200 uM and full-length at 100 uM (4 mg/ml)
The figure you give is taken to be in %; do not add the unit.

Query: Annotate the protein SYCE2-TEX12 core H89E/Y115E, 2:2 building block (complex, human, SYCE2, human, core, residues 57-165, with H89E and Y115E; TEX12, human, core, residues 49-123; m4 + m8; also called H89E Y115E mutation; source: E. coli BL21 (DE3), co-expressed, purified (Ni-NTA, amylose, ion exchange, SEC); not shown: MBP, N-terminal, cleaved; His6, N-terminal, cleaved; copies: 2 + 2) chain 1: GLYFSSLDSSIDILQKRAQELIENINKSRQKDEALMTNFRNSLKTKVSDLTEKLEERIEQIYNDHNKIIQEKLQEFTQKMAKISHLETELKQVCHSVETVYKDLCLQPE chain 2: KDEALEKDLNDVSKEINLMLSTYAKLLSERAAVDASYIDEIDELFKEANAIENFLIQKREFLRQRFTVIANTLHR with its measured percent of total mass as 2:2 complex (not self-associated).
Response: 60

Query: Annotate the protein SYCE2-TEX12 full-length wild-type, 2:2 building block (complex, human, SYCE2, human, full-length, residues 1-218; TEX12, human, full-length, residues 1-123; m2 + m9; also called full-length SYCE2-TEX12; source: E. coli BL21 (DE3), co-expressed, purified (Ni-NTA, amylose, ion exchange, SEC); not shown: MBP, N-terminal, cleaved; His6, N-terminal, cleaved; copies: 2 + 2) chain 1: MERQGVDVPHVKCKDQEPQPLGESKEHPRWEENCEEEAGGGPASASCQLTVLEGKSGLYFSSLDSSIDILQKRAQELIENINKSRQKDHALMTNFRNSLKTKVSDLTEKLEERIYQIYNDHNKIIQEKLQEFTQKMAKISHLETELKQVCHSVETVYKDLCLQPEQSLRLRWGPDHSRGKSPPRPGNSQPPDVFVSSVAETTSQATASEVQTNRDGEC chain 2: MMANHLVKPDNRNCKRPRELESPVPDSPQLSSLGKSDSSFSEISGLFYKDEALEKDLNDVSKEINLMLSTYAKLLSERAAVDASYIDEIDELFKEANAIENFLIQKREFLRQRFTVIANTLHR with its measured percent of total mass as 2:2 complex (not self-associated).
Response: 12

Query: Annotate the protein SYCE2-TEX12 core ΔS2C/ΔCtip 2:2 complex (complex, human, SYCE2, human, ΔS2C, residues 57-154; TEX12, human, core ΔCtip, residues 49-113; m3 + m10; also called ΔS2C/ΔCtip core complex; source: E. coli BL21 (DE3), co-expressed, purified (Ni-NTA, amylose, ion exchange, SEC); not shown: MBP, N-terminal, cleaved; His6, N-terminal, cleaved; copies: 2 + 2) chain 1: GLYFSSLDSSIDILQKRAQELIENINKSRQKDHALMTNFRNSLKTKVSDLTEKLEERIYQIYNDHNKIIQEKLQEFTQKMAKISHLETELKQVCHSVE chain 2: KDEALEKDLNDVSKEINLMLSTYAKLLSERAAVDASYIDEIDELFKEANAIENFLIQKREFLRQR with its measured percent of total mass as 2:2 complex (not self-associated).
Response: 86

Query: Annotate the protein SYCE2-TEX12 full-length FFV (TEX12 F102A F109A V116A), 2:2 building block (complex, human, SYCE2, human, full-length, residues 1-218; TEX12, human, full-length, residues 1-123, with F102A, F109A and V116A; m2 + m14; source: E. coli BL21 (DE3), co-expressed, purified (Ni-NTA, amylose, ion exchange, SEC); not shown: MBP, N-terminal, cleaved; His6, N-terminal, cleaved; copies: 2 + 2) chain 1: MERQGVDVPHVKCKDQEPQPLGESKEHPRWEENCEEEAGGGPASASCQLTVLEGKSGLYFSSLDSSIDILQKRAQELIENINKSRQKDHALMTNFRNSLKTKVSDLTEKLEERIYQIYNDHNKIIQEKLQEFTQKMAKISHLETELKQVCHSVETVYKDLCLQPEQSLRLRWGPDHSRGKSPPRPGNSQPPDVFVSSVAETTSQATASEVQTNRDGEC chain 2: MMANHLVKPDNRNCKRPRELESPVPDSPQLSSLGKSDSSFSEISGLFYKDEALEKDLNDVSKEINLMLSTYAKLLSERAAVDASYIDEIDELFKEANAIENALIQKREALRQRFTAIANTLHR with its measured percent of total mass as 2:2 complex (not self-associated).
Response: 15
